Hello, the source for this data is the supplement of paper PMC7125110, in case you need it.

# reported self-cleavage kobs at 160 uM GlcN6P; entries follow
B1: glmS ribozyme (parent)
chain: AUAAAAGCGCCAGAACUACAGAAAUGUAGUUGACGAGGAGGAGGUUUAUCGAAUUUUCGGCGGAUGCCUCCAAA

variants of: B1; test: self-cleavage kobs at 160 uM GlcN6P; higher = faster cleavage; RNA array; conditions: with glucosamine-6-phosphate
Variants at the floor of the assay were thinned out.
PROPERTY_LABEL: self-cleavage kobs at 160 uM GlcN6P

>  <CHAIN_SEQUENCE>
AUAAAAGCGCCAGAACUACAGAAAUGUAGUUGGCGCGGAGGAGGUUUAUCGAAUUUUCGGCGGAUGCCUCCAAA

>  <MEASURED_VALUE>
< 1e-05 s⁻¹

$$$$
>  <CHAIN_SEQUENCE>
AUAAAAGCGCCAGAACUACAGAAAUGUAGUUGACGAGGCGGAGGUUUAUCGAAUUUGCGGCGGAUGCCUCCAAA

>  <MEASURED_VALUE>
< 1e-05 s⁻¹

$$$$
>  <CHAIN_SEQUENCE>
AUAAAAGCGCCAGAACUACAGAAAUGUAGGUGACGAGGAGGAGGUUUAUCAAAUUUUCGGCGGAUGCCUCCAAA

>  <MEASURED_VALUE>
< 1e-05 s⁻¹

$$$$
>  <CHAIN_SEQUENCE>
AUAAAAGCGCCAGAACUACAGAAAUGUAGUUGACGAGGAGGAGGUUUAUUCAAUUUUCGGCGGAUGCCUCCAAA

>  <MEASURED_VALUE>
< 1e-05 s⁻¹

$$$$
>  <CHAIN_SEQUENCE>
AUAAAAGAGCCAGAACUACAGAAAUGUAGUUGACGAGGAGGAGGUUUAUCGAAUUAUCGGCGGAUGCCUCCAAA

>  <MEASURED_VALUE>
< 1e-05 s⁻¹

$$$$
>  <CHAIN_SEQUENCE>
AUAAAAGCGCCAGAACUACAGAAAUGUAGUUGACGAGGAGGAGGUUUAUCGAAUUUGCGGCGGAUGCGUCCAAA

>  <MEASURED_VALUE>
4.02e-05 s⁻¹

$$$$
>  <CHAIN_SEQUENCE>
AUAAAAGCGCCAGAACUACAGAAAUGUAGUUGACGAGGCGGAGGUGUAUCGAAUUUUCGGCGGAUGCCUCCAAA

>  <MEASURED_VALUE>
6.87e-05 s⁻¹

$$$$
>  <CHAIN_SEQUENCE>
AUAAAAGCGCCAGAACUACAGAAAUGUAGAUGACGAGGAGGAGGUUUUUCGAAUUUUCGGCAGAUGCCUCCAAA

>  <MEASURED_VALUE>
< 1e-05 s⁻¹

$$$$
>  <CHAIN_SEQUENCE>
AUAAAAGCGCAAGAACUACAGAAAUGUAGUUGACGAGGAGGAGGUUUAUCGAAUUUUUGGCGGAUGCAUCCAAA

>  <MEASURED_VALUE>
7.67e-05 s⁻¹

$$$$
>  <CHAIN_SEQUENCE>
AUAAAAGCGCCAGAACUACAGAAAUGUAGAUGACGAGGAGGAGGUUUAUCGACUUUUCGUCGGAUGCCUCCAAA

>  <MEASURED_VALUE>
< 1e-05 s⁻¹

$$$$
>  <CHAIN_SEQUENCE>
AUAAAAGCGCCAGCACUACAGAAAUGUAGUUGACGAGGAAGAGGUUUAUCGAAUUUUCGGCGGAUGCCUCCAAA

>  <MEASURED_VALUE>
8.2e-05 s⁻¹

$$$$
>  <CHAIN_SEQUENCE>
AUAAAAGCGCCAGAACUACAGAAAUGUAGUUGACGAGGAGGAGGGUUAUCGAAUUUUCGGCGGAUGACUCCAAA

>  <MEASURED_VALUE>
0.000663 s⁻¹

$$$$
>  <CHAIN_SEQUENCE>
AUAAAAGCGCCAGAACUACAGAAAUGUAGUUGACGAAGAGGAGGUUUAUCGUAUUUUCGGCGGAUGCCUCCAAA

>  <MEASURED_VALUE>
< 1e-05 s⁻¹

$$$$
>  <CHAIN_SEQUENCE>
AUAAAAACGCCAGAACUACAGAAAUGUAGUUGACGAGGAGGAGGUUUAUCGAAUUUUCGGCGGACGCCUCCAAA

>  <MEASURED_VALUE>
< 1e-05 s⁻¹

$$$$
>  <CHAIN_SEQUENCE>
AUAAAAGCGCCAGAAGUACAGAAAUGUAGUUGACGAGGAGGAGGUUUAUCGAAUUUUCCGCGGAUGCCUCCAAA

>  <MEASURED_VALUE>
< 1e-05 s⁻¹

$$$$
>  <CHAIN_SEQUENCE>
AUAAAAGCGCCAGAACUACAGAAAUGUAAUGGACGAGGAGGAGGUUUAUCGAAUUUUCGGCAGAUGCCUCCAAA

>  <MEASURED_VALUE>
< 1e-05 s⁻¹

$$$$
>  <CHAIN_SEQUENCE>
AUAAAAGCGCCAGAACUACAGAAAUGUAGUUGAUGAGGAGGAGGUUUAUGGAAUUUUCGGCGGAUGCCUCCAAA

>  <MEASURED_VALUE>
0.000184 s⁻¹

$$$$
>  <CHAIN_SEQUENCE>
AUAAAAGCGCCAGAACUACAGAAAUGUAGUUGACGAGGAGGAGGUUUAUCGAAUUUUCGGAGGCUGCCUCCAAA

>  <MEASURED_VALUE>
< 1e-05 s⁻¹

$$$$
>  <CHAIN_SEQUENCE>
AUAAAAGCGCCAGAACUACAGAAAUGUAGUUGACGCGGAGGAGGUUUAUCGAAUAUUCGGCGGAUGCCUCCAAA

>  <MEASURED_VALUE>
< 1e-05 s⁻¹

$$$$
>  <CHAIN_SEQUENCE>
AUAAAAGCGCCAGAACUACAGAAAUGUAGUUGACUAGGAGGAGGUUUAUCGAAUUUUCGACGGAUGCCUCCAAA

>  <MEASURED_VALUE>
< 1e-05 s⁻¹

$$$$
>  <CHAIN_SEQUENCE>
AUAAAUGCGCCAGAACUACAGAAAUGUAGUUGACUAGGAGGAGGUUUAUCGAAUUUUCGGCGGAUGCCUCCAAA

>  <MEASURED_VALUE>
< 1e-05 s⁻¹

$$$$
>  <CHAIN_SEQUENCE>
AUAAAAGUGCCAGAACUACAGAAAUGUAGUUGACGAGGAGGAGGUUUAUCGAAUUUUCAGCGGAUGCCUCCAAA

>  <MEASURED_VALUE>
< 1e-05 s⁻¹

$$$$
